system: HS 578T breast; assay: NCI tumour cell line growth inhibition, 48 h
endpoint name: GI50

| molecule | experimental value |
| --- | --- |
| CN(Cc1cnc2nc(N)nc(N)c2n1)c1ccc(C(=O)NC(CCC(=O)O)C(=O)O)c2ccccc12 (centres undefined) | > 1000 µM |
| O=C1Nc2ccc(-c3cccnc3)cc2/C1=C/c1cc(Br)c(O)c(Br)c1 | 5.67 µM |
| N#CN1CC[C@H](C(=O)Nc2ncc(-c3ccccc3)s2)C1 | 0.811 µM |
| CCOC(=O)[C@@H](C)C[C@H](Cc1ccccc1)NC(=O)c1csc([C@@H](C[C@H](C(C)C)N(C)C(=O)CNC(=O)[C@H]2CCCCN2C)OC(C)=O)n1 | 1.5 µM |

====

test system: EKVX NSCLC; assay: NCI tumour cell line growth inhibition, 48 h
endpoint name: TGI

| compound | experimental value |
| --- | --- |
| COCc1cc2c(s1)C(=O)C1=C(C2=O)C2(C=C(Br)C(=O)C(Br)=C2)CCN1 | 26.3 µM |
| O=C1Nc2ccc(-c3cccnc3)cc2/C1=C/c1cc(Br)c(O)c(Br)c1 | > 25 µM |
| OCCNc1nc2ccccc2c2[nH]c3ccccc3c12 | 15.5 µM |
| Cc1cc(OC2OC(CO)C(O)C(O)C2O)ccc1O (centres undefined) | > 100 µM |
| Cn1cc(-c2ccc3ncc(-c4ccc(CC(=O)Nc5cc(C(C)(C)C)nn5C)cc4)cc3c2)cn1 | > 20 µM |
| CC(=O)Oc1cc2c(cc1OCC(F)(F)F)[C@H]1CC[C@]3(C)[C@@H](OC(C)=O)CC[C@H]3[C@@H]1CC2=O | > 72.1 µM |
| COc1ccc2oc(=O)c(-c3cc4c(c(C)n3)c(=O)oc3ccc(OC)cc34)cc2c1 | > 100 µM |
| COCOC1CCCC[C@@]1(OCCOCCO[C@@]1(c2ccccc2)CCCC[C@H]1OCOC)c1ccccc1 (some centres undefined) | > 100 µM |
| CC(C)c1ccc(Cc2ccc(C(C)C)c(NC(=O)C(=O)Cc3cnc4ccccc4n3)c2C(C)C)c(C(C)C)c1NC(=O)C(=O)Cc1cnc2ccccc2n1 | > 100 µM |

====

test system: SNB-75 CNS; assay: NCI tumour cell line growth inhibition, 48 h

| compound | TGI |
| --- | --- |
| COC(=O)[C@]12CC[C@@H](C)[C@H](C)[C@@H]1C1=CC[C@@H]3[C@@]4(C)C(C=O)=C[C@@](C)(COS(C)(=O)=O)C4=CC[C@@]3(C)[C@]1(C)CC2 | 0.61 µM |
| COc1cccc(/C=N/[N-]C(N)=O)c1[O-].[Cu+2].[OH3+] | 25.1 µM |
| O=C1C=CC2(CCC23C=CC(=O)O3)O1 (stereo not drawn) | > 100 µM |
| O=C1C2C(C(=O)N1Cc1ccccc1)N(Cc1ccccc1)C(=O)N2Cc1ccccc1 (stereo not drawn) | > 100 µM |
| C/C(=N/NC(=S)Nc1ccc(C)cc1)c1ccccn1 | 17.2 µM |
| CO[C@H]1C(=O)[C@]2(C)[C@@H](OC)C[C@H]3OC[C@@]3(OC(C)=O)[C@H]2[C@H](OC(=O)c2ccccc2)[C@]2(O)C[C@H](OC(=O)[C@H](O)[C@@H](NC(=O)OC(C)(C)C)c3ccccc3)C(C)=C1C2(C)C | < 0.01 µM |
| O=C1Nc2noc(=O)nc2NO1 | > 200 µM |
| CNC(=O)OCc1nc(SSc2nc(COC(=O)NC)c(COC(=O)NC)n2C)n(C)c1COC(=O)NC | > 100 µM |

====

tested on: NCI-H522 lung; test: NCI tumour cell line growth inhibition, 48 h
Measured TGI values are reported for all entries that follow.
endpoint name: TGI

| compound | system | endpoint name | experimental value |
| --- | --- | --- | --- |
| O=C(CI)NC(=O)NC(=O)NCc1ccccc1 | NCI-H522 lung | TGI | 3.52 µM |
| O=c1[nH]c(=S)[nH]c(O)c1/C=C1\C=Nc2ccccc21 | NCI-H522 lung | TGI | 54.4 µM |
| O=c1[nH]ncc2[nH]c3c(c12)CCc1ccccc1-3 | NCI-H522 lung | TGI | 57 µM |
| NC(=O)CSc1nc2ccccc2c(=O)n1N | NCI-H522 lung | TGI | > 100 µM |
| CCOC(=O)C1=C(C)N(NC(N)=O)C2(N)N(NC(N)=O)C(C)=C(C(=O)OCC)C12C#N (stereo unspecified) | NCI-H522 lung | TGI | > 100 µM |
| NC1CCC2(O)c3ccccc3C2C1 (stereo unspecified) | NCI-H522 lung | TGI | > 100 µM |
| NCCCNc1nc2ccccc2c2c(=O)c3cc(Cl)ccc3sc12 | NCI-H522 lung | TGI | 3.14 µM |
| Clc1[nH]nc2ccccc12 | NCI-H522 lung | TGI | > 100 µM |
| COc1ccc(N(CC(=O)O)N=O)cc1 | NCI-H522 lung | TGI | > 100 µM |
| COc1c(OC2OC(CO)C(O)C(O)C2O)cc2c(c1OC)-c1ccc(OC)c(=O)cc1C(NC(C)=O)CC2 (stereo unspecified) | NCI-H522 lung | TGI | > 100 µM |
| COCOC1CCCC[C@@]1(OCCOCCO[C@@]1(c2ccccc2)CCCC[C@H]1OCOC)c1ccccc1 (stereo partly specified) | NCI-H522 lung | TGI | > 100 µM |

====

tested on: BT-549 breast; assay: NCI tumour cell line growth inhibition, 48 h
endpoint name: TGI

| compound | endpoint name | experimental value |
| --- | --- | --- |
| C/C(=N\NC(=S)N1CCC1)c1ccccn1 | TGI | 73.3 µM |
| COc1ccc(-c2cnc(-c3ccncc3-c3cccc(OC)c3)o2)cc1 | TGI | 13.9 µM |
| O=c1[nH]c(=S)[nH]c(O)c1/C=C1\C=Nc2ccccc21 | TGI | 37.4 µM |
| Cc1nnc(SCc2nc(C#N)c(C#N)nc2CSc2nnc(C)s2)s1 | TGI | 36.3 µM |
| CCN1C(=O)N(CC)C2C1NC(=S)N2/N=C/C=C/c1ccccc1 (centres undefined) | TGI | 13 µM |
| O=C1/C(=C\c2cccc(Oc3ccccc3)c2)SC(c2ccccc2)N1c1cc(Cl)ccc1Cl (centres undefined) | TGI | > 100 µM |
| O=C(O)CCCc1ccc2c(c1)C(C(=O)O)CC2 (centres undefined) | TGI | > 100 µM |
| COC(=O)c1ccc(NC(N)=NCCC(C)(C)c2ccc(C(F)(F)F)cc2)nc1 | TGI | 18.1 µM |
| O=C1c2cccc3c(N4CCOCC4)ccc(c23)C(=O)N1CCN1CCN(CCCCCN2CCN(CCN3C(=O)c4cccc5c(N6CCOCC6)ccc(c45)C3=O)CC2)CC1 | TGI | > 100 µM |
| O=C(Nc1nc2ccc(S(=O)(=O)Nc3ccc(C4(C(F)(F)F)CC4)cc3)cc2[nH]1)c1cnccn1 | TGI | 16.1 µM |
| CC1=NC(=N)N=C(C)C1N=Nc1ccc2nc(C)[nH]c2c1 (centres undefined) | TGI | > 100 µM |
| C#COc1cccc(Nc2ncnc3cc(NC(=O)[C@@H](C)Cl)ccc23)c1 | TGI | > 62.5 µM |
| N=C(N)n1cc(/C=N/N=C(N)N)cn1 | TGI | > 100 µM |
| [O-][n+]1c2cccc(O)c2[n+]([O-])c2cccc(O)c21 | TGI | > 100 µM |
| O=C1Nc2ccc(-c3cccnc3)cc2/C1=C/c1cc(Br)c(O)c(Br)c1 | TGI | > 18.9 µM |
| O=[N+]([O-])/C=C/c1cc(Cl)c(/C=C/[N+](=O)[O-])cc1Cl | TGI | 3.25 µM |
| Nc1nc(Cl)c2ncn(Cc3ccc(C45CC6CC(CC(C6)C4)C5)c(OCc4cc(F)c(F)cc4F)c3)c2n1 | TGI | 13 µM |
| O=C(CCCCN1CCN(CCCCC(=O)Nc2ccccc2C#C/C=C\C#Cc2ccccc2C(F)(F)F)CC1)Nc1ccccc1C#C/C=C\C#Cc1ccccc1C(F)(F)F | TGI | 17.4 µM |
| CC(=O)Nc1cccc(C#Cc2cncnc2Nc2ccc(OCc3cccc(F)c3)c(Cl)c2)c1 | TGI | > 25 µM |
| C[C@]12CCc3nc(Nc4ccc(O)cc4)sc3C1=CC[C@@H]1[C@@H]2CC[C@]2(C)/C(=N/NC(N)=S)CC[C@@H]12 | TGI | 3.99 µM |
| O=c1[nH]ncc2[nH]c3c(c12)CCc1ccccc1-3 | TGI | > 100 µM |
| CC(=O)OC12c3ccccc3C(c3ccccc31)C1C(=O)N(N=C(C)C)C(=O)C12 (centres undefined) | TGI | > 100 µM |
| C/C(=C/CCC(C)[C@@H]1CC[C@]2(C)C3=C(CC[C@@]12C)[C@@]1(C)CCC(=O)C(C)(C)[C@@H]1CC3)C(=O)O (some centres undefined) | TGI | 2.45 µM |
| CCN(CC)CCCC(Nc1c2ccc(Cl)cc2nc2ccc(OC)cc12)c1ccc(Cl)cc1 (centres undefined) | TGI | 3.47 µM |
| CN(C)C1C(=O)C(C(N)=O)=C(O)C2(O)C(=O)C3=C(O)c4c(O)cccc4C(C)(O)C3CC12.[Cl][Sb]([Cl])[Cl] (centres undefined) | TGI | 10.4 µM |
| Nc1nc(-c2ccccc2)c(CC(=O)O)s1 | TGI | > 100 µM |
| Cn1c(CO)ccc1-c1ccc(-c2ccc(CO)[se]2)[se]1 | TGI | > 91.4 µM |
| COC(=O)Nc1cc(OCCCOC(C)=O)c2[nH]c(C(=O)OC)cc2c1C[C@H](O)CO | TGI | > 100 µM |
| O=C(/C=C\c1ccccc1)Oc1ccc(/C=C2\CCC/C(=C\c3ccc(OC(=O)/C=C\c4ccccc4)cc3)C2=O)cc1 | TGI | > 100 µM |
| COC(=O)[C@H](C)NC(=O)[C@H](NS(=O)(=O)c1nc2ccccc2s1)c1ccccc1 | TGI | > 100 µM |
| COc1ccc2oc(=O)c(-c3cc4c(c(C)n3)c(=O)oc3ccc(OC)cc34)cc2c1 | TGI | > 100 µM |
| COc1cc(C=O)cc(C=Nc2ccc(Br)cc2)c1O | TGI | > 100 µM |
| NCCCNc1nc2ccccc2c2c(=O)c3cc(Cl)ccc3sc12 | TGI | 46.2 µM |
| NC(=O)CSc1nc2ccccc2c(=O)n1N | TGI | > 100 µM |
| C[n+]1c2ccccc2n2c3ccccc3c(NCCCn3ccnc3)c(C#N)c21 | TGI | > 100 µM |
| CC(=O)CCC1(C(=O)OCC(C)C)CCCC1=O (centres undefined) | TGI | > 100 µM |
| O=c1[nH]c2c(Nc3c4ccccc4nc4ccccc34)c([N+](=O)[O-])c(Nc3c4ccccc4nc4ccccc34)c([N+](=O)[O-])c2[nH]1 | TGI | 20.6 µM |
| COc1ccc(C2C(=O)c3ccc(OC)cc3OC2c2cccnc2)cc1 (centres undefined) | TGI | > 100 µM |
| CC(C)(NO)/C(=N\O)c1ccccc1 | TGI | > 10 µM |
